Below, each entry is listed alongside its reported Percent Growth.
tested on: LOX IMVI; assay: panel of 60 human tumor cell lines, growth inhibition (Melanoma); details: Log10 Concentration −8.0
Answers without a unit are incomplete; give the number and then its unit.

| compound_structure_string | Percent Growth |
| --- | --- |
| C=C1C(=O)O[C@H]2[C@H]1CC/C(COC(=O)NCCc1ccccn1)=C\CC[C@@]1(C)O[C@@H]21 | 99% |
| C=C1C(=O)O[C@H]2[C@H]1CC/C(COC(=O)N1CCN(C)CC1)=C\CC[C@@]1(C)O[C@@H]21 | 94% |
| C=C1C(=O)O[C@H]2[C@H]1CC/C(COC(=O)NCCN1CCCCC1)=C\CC[C@@]1(C)O[C@@H]21 | 102% |
| C=C1C(=O)O[C@H]2[C@H]1CC/C(COC(=O)NCCO)=C\CC[C@@]1(C)O[C@@H]21 | 100% |

Notebook: C=C1C(=O)O[C@H]2[C@H]1CC/C(COC(=O)CCC(=O)N1CCC(C)CC1)=C\CC[C@@]1(C)O[C@@H]21 , Percent Growth read as 96%

* * *

tested on: K-562; experiment: panel of 60 human tumor cell lines, growth inhibition (Leukemia); details: K-562; Log10 Concentration −6.0
Below, each entry is listed alongside its reported Percent Growth.

Consider the reported Percent Growth for these compounds:
| compound_structure_string | target_entity | Percent Growth |
| --- | --- | --- |
| C=C1C(=O)O[C@H]2[C@H]1CC/C(COC(=O)N1CCC(F)(F)CC1)=C\CC[C@@]1(C)O[C@@H]21 | K-562 | 93% |
| C=C1C(=O)O[C@H]2[C@H]1CC/C(COC(=O)NCCO)=C\CC[C@@]1(C)O[C@@H]21 | K-562 | 100% |
| C=C1C(=O)O[C@H]2[C@H]1CC/C(COC(=O)OC)=C\CC[C@@]1(C)O[C@@H]21 | K-562 | 97% |

Notebook: C=C1C(=O)O[C@H]2[C@H]1CC/C(COC(=O)OCCN(C)C)=C\CC[C@@]1(C)O[C@@H]21 , Percent Growth read as 107%

* * *

Below, each entry is listed alongside its reported Percent Growth.
test system: UACC-257; experiment: panel of 60 human tumor cell lines, growth inhibition (Melanoma); conditions: UACC-257; Log10 Concentration −7.0
Answers without a unit are incomplete; give the number and then its unit.

Consider the reported Percent Growth for these compounds:
| compound_structure_string | Percent Growth |
| --- | --- |
| C=C1C(=O)O[C@H]2[C@H]1CC/C(COC(=O)CCC(=O)N1CCC(C)CC1)=C\CC[C@@]1(C)O[C@@H]21 | 92% |
| C=C1C(=O)O[C@H]2[C@H]1CC/C(COC(=O)N1CCC(F)(F)CC1)=C\CC[C@@]1(C)O[C@@H]21 | 96% |
| C=C1C(=O)O[C@H]2[C@H]1CC/C(COC(=O)NCCN1CCCCC1)=C\CC[C@@]1(C)O[C@@H]21 | 92% |

Notebook: C=C1C(=O)O[C@H]2[C@H]1CC/C(COC(=O)NCCc1ccccn1)=C\CC[C@@]1(C)O[C@@H]21 , Percent Growth read as 92%

* * *

Below, each entry is listed alongside its reported CC50.
test system: TK-10
The answer is to be given in µM; state only the numeric part.

| compound_structure_string | target_entity | units_symbol | CC50 |
| --- | --- | --- | --- |
| C=C1C(=O)O[C@H]2[C@H]1CC/C(COC(=O)N1CCN(C)CC1)=C\CC[C@@]1(C)O[C@@H]21 | TK-10 | µM | 41.6 |
| C=C1C(=O)O[C@H]2[C@H]1CC/C(COC(=O)NCCN1CCCCC1)=C\CC[C@@]1(C)O[C@@H]21 | TK-10 | µM | 35.8 |
| C=C1C(=O)O[C@H]2[C@H]1CC/C(COC(=O)NC)=C\CC[C@@]1(C)O[C@@H]21 | TK-10 | µM | 31.8 |
| C=C1C(=O)O[C@H]2[C@H]1CC/C(COC(=O)N1CCC(F)(F)CC1)=C\CC[C@@]1(C)O[C@@H]21 | TK-10 | µM | 23.5 |

Notebook: C=C1C(=O)O[C@H]2[C@H]1CC/C(COC(=O)CCC(=O)N1CCC(C)CC1)=C\CC[C@@]1(C)O[C@@H]21 , CC50 read as 36.3

Notebook: C=C1C(=O)O[C@H]2[C@H]1CC/C(COC(=O)NCCO)=C\CC[C@@]1(C)O[C@@H]21 , CC50 read as 52.3

* * *

system: HOP-62; assay: panel of 60 human tumor cell lines, growth inhibition (Non-Small Cell Lung Cancer); settings: Homo sapiens, HOP-62, read-out: LC50
assay_readout: CC50 (µM)
The answer is to be given in µM; state only the numeric part.

Consider the reported CC50 for these molecules:
| compound_structure_string | CC50 [µM] |
| --- | --- |
| C=C1C(=O)O[C@H]2[C@H]1CC/C(COC(=O)NCCN1CCCC1)=C\CC[C@@]1(C)O[C@@H]21 | 62.3 |
| C=C1C(=O)O[C@H]2[C@H]1CC/C(COC(=O)OCCCN1CCCCC1)=C\CC[C@@]1(C)O[C@@H]21 | 57.7 |

// next item, CC50 requested
Notebook: C=C1C(=O)O[C@H]2[C@H]1CC/C(COC(=O)NCCCCCCO)=C\CC[C@@]1(C)O[C@@H]21 , CC50 read as 86.7

* * *

Below, each entry is listed alongside its reported Percent Growth.
system: KM12; assay: panel of 60 human tumor cell lines, growth inhibition (Colon Cancer); details: KM12; Log10 Concentration −5.0
The answer is to be given in %; state only the numeric part.

| compound | units_symbol | Percent Growth |
| --- | --- | --- |
| C=C1C(=O)O[C@H]2[C@H]1CC/C(COC(=S)n1ccnc1)=C\CC[C@@]1(C)O[C@@H]21 [JVM 66] | % | 99 |
| C=C1C(=O)O[C@H]2[C@H]1CC/C(COC(=O)NCCc1ccccn1)=C\CC[C@@]1(C)O[C@@H]21 [JVM 61] | % | 88 |
| C=C1C(=O)O[C@H]2[C@H]1CC/C(COC(=O)NCCN1CCCC1)=C\CC[C@@]1(C)O[C@@H]21 [JVM 59] | % | 90 |
| C=C1C(=O)O[C@H]2[C@H]1CC/C(COC(=O)NC)=C\CC[C@@]1(C)O[C@@H]21 [JVM 2-57] | % | 73 |

// next item, Percent Growth requested
Notebook: C=C1C(=O)O[C@H]2[C@H]1CC/C(COC(=O)CCC(=O)N1CCC(C)CC1)=C\CC[C@@]1(C)O[C@@H]21 [JVM 2-70] , Percent Growth read as 62

* * *

Below, each entry is listed alongside its reported Percent Growth.
test system: NCI-H322M; test: panel of 60 human tumor cell lines, growth inhibition (Non-Small Cell Lung Cancer); details: Log10 Concentration −6.0
The answer is to be given in %; state only the numeric part.

Consider the reported Percent Growth for these compounds:
| compound_structure_string | assay_readout | value_measured |
| --- | --- | --- |
| C=C1C(=O)O[C@H]2[C@H]1CC/C(COC(=O)NC)=C\CC[C@@]1(C)O[C@@H]21 | Percent Growth | 97 |
| C=C1C(=O)O[C@H]2[C@H]1CC/C(COC(=O)NCCO)=C\CC[C@@]1(C)O[C@@H]21 | Percent Growth | 105 |

Notebook: C=C1C(=O)O[C@H]2[C@H]1CC/C(COC(=O)N1CCC(F)(F)CC1)=C\CC[C@@]1(C)O[C@@H]21 , Percent Growth read as 102

Notebook: C=C1C(=O)O[C@H]2[C@H]1CC/C(COC(=O)NCCN1CCCCC1)=C\CC[C@@]1(C)O[C@@H]21 , Percent Growth read as 106

* * *

system: SR; assay: panel of 60 human tumor cell lines, growth inhibition (Leukemia); settings: Log10 Concentration −4.0
assay_readout: Percent Growth (%)
The answer is to be given in %; state only the numeric part.

Consider the reported Percent Growth for these compounds:
| compound | target_entity | Percent Growth [%] |
| --- | --- | --- |
| C=C1C(=O)O[C@H]2[C@H]1CC/C(COC(=O)N1CCN(C)CC1)=C\CC[C@@]1(C)O[C@@H]21 [JVM 2-44] | SR | −14 |
| C=C1C(=O)O[C@H]2[C@H]1CC/C(COC(=O)NCCc1ccccn1)=C\CC[C@@]1(C)O[C@@H]21 [JVM 61] | SR | −34 |
| C=C1C(=O)O[C@H]2[C@H]1CC/C(COC(=O)NC)=C\CC[C@@]1(C)O[C@@H]21 [JVM 2-57] | SR | −45 |

Notebook: C=C1C(=O)O[C@H]2[C@H]1CC/C(COC(=O)N1CCC(F)(F)CC1)=C\CC[C@@]1(C)O[C@@H]21 [JVM 2-66] , Percent Growth read as −38

Notebook: C=C1C(=O)O[C@H]2[C@H]1CC/C(COC(=O)NCCN1CCCCC1)=C\CC[C@@]1(C)O[C@@H]21 [JVM 2-13] , Percent Growth read as −47
